Catalogue of binders with associated Kd
# Target desc: T1, human SIRP-α v1 D1 domain (human, UniProt P78324 31-149)
# T1 construct: also called human v1; human α v1
# T1 sequence (P78324 31-149 limits assumed): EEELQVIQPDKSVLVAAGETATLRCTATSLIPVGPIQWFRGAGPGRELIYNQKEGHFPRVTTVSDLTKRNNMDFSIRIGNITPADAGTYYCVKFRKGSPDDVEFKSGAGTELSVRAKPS
# Test description: SPR, antibody immobilised on GLC chip
Quick reminder: number only, in nM, skip the unit.

Field request: Kd | item: antibody 136 variant MutRv_I2T/mut (antibody, human IgG1, V domains shown, Human IgG1 with L234A/L235A/G237A/N297A; Labels are light chain/heavy chain) VH: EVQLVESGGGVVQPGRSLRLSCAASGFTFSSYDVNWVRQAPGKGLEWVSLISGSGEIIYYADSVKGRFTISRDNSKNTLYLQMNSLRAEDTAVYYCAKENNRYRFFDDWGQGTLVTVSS VL: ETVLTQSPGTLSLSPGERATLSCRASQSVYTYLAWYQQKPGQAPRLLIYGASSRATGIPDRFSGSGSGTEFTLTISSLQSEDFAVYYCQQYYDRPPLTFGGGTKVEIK 0.717

Another binder: antibody 136 variant Mut/mut (antibody, human IgG1, V domains shown, Human IgG1 with L234A/L235A/G237A/N297A; Labels are light chain/heavy chain) VH: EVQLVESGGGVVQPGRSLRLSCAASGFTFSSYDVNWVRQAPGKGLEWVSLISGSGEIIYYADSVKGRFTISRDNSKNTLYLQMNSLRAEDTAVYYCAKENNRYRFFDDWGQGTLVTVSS VL: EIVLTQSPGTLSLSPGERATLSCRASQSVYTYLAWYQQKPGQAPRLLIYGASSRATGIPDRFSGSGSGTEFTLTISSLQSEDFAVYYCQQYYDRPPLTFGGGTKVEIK 7.32

Another binder: antibody 136 variant MutRv_Q38E/mut (antibody, human IgG1, V domains shown, Human IgG1 with L234A/L235A/G237A/N297A; Labels are light chain/heavy chain) VH: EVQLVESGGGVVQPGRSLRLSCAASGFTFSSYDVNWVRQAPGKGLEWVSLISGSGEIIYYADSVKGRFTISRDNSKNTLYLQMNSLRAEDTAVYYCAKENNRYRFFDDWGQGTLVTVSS VL: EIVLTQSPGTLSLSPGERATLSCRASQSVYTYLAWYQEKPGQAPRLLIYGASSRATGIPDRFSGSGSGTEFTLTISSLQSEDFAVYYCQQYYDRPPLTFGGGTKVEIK 6.18
